Record form. Attribute: log10 of TGI. Fill in for each entry.
# System: SK-MEL-2 melanoma
# experimental protocol: NCI tumour cell line growth inhibition, 48 h
// stored as log10 of TGI expressed in µM

Exercise: Query: log10 of TGI; subject: O=C(CN1CCCC1)Nc1ccc2sc3ccccc3c(=O)c2n1
Key: 1.69

Exercise: Please look up its log10 of TGI: COC(=O)/C(Cl)=C1/CC1COCc1ccccc1 (stereo unspecified)
Key: 1.99

Exercise: For the molecule shown here, CCOC(=O)C(SCCO)C(C(=O)OCC)n1cc(C)c(=O)[nH]c1=O (stereo unspecified) , give the reported log10 of TGI.
Key: 1.71

Exercise: log10 of TGI lookup needed for C(#Cc1ccccc1C#Cc1ccccn1)c1ccc(OCCCCCCOc2ccc(C#Cc3ccccc3C#Cc3ccccn3)cc2)cc1 , thanks.
Key: 1.05

Exercise: log10 of TGI for COc1ccc2c(c1)c(=O)oc1cc(OC/C(=N\O)c3ccc(F)cc3)ccc12 ?
Key: 1.68

Exercise: Please give the measured log10 of TGI for this molecule: Cc1ccc(S(=O)(=O)N2C/C(=C\c3cc(F)cc(F)c3)C(=O)/C(=C/c3cc(F)cc(F)c3)C2)cc1
Key: 0.45

Exercise: Need log10 of TGI of CCOC(=O)c1c2c(n3cccc(F)c13)C(=O)c1ncccc1C2=O , thanks.
Key: 1.87
